Multi-source literature compilation: log10 Ki on UniProt:P28222.
Kindly note that the scale is log10 and the underlying Ki is in nM.

Respectfully, I request log10 Ki for each entry included below.
1. CC(=O)N1CCC(NC(=O)c2cc3cccc(N4CCN(CCc5ccccn5)CC4)c3o2)CC1
2. CC(=O)N1CCc2cc(CCN3CCN(c4cccc5cc(C(=O)N6CCC6)oc45)CC3)ccc21
3. CNC(=O)c1cc2c(N3CCN(CCc4cccc5c4CCC(=O)N5C)CC3)cccc2o1
4. N#Cc1cccc(CNC(=O)c2cc3cccc(N4CCN(CCc5ccccn5)CC4)c3o2)c1
5. Cn1cnc(CCNC(=O)c2cc3cccc(N4CCN(CCc5ccccn5)CC4)c3o2)c1
6. COc1cccc(CCNC(=O)c2cc3cccc(N4CCN(CCc5ccccn5)CC4)c3o2)c1
7. CC(NC(=O)c1cc2cccc(N3CCN(CCc4ccccn4)CC3)c2o1)c1ccnn1C (stereo not shown)
8. CCCN1CCN(c2ccc3c(c2)C(N(C)C(=O)OCc2ccccc2)CCC3)CC1 (stereo not shown)

1. 1.91
2. 1.15
3. -0.19
4. 0.96
5. 1.23
6. -0.15
7. 2.45
8. 2.56

Respectfully, I request log10 Ki for each entry included below.
1. N#Cc1ccc(CNC(=O)c2cc3cccc(N4CCN(CCc5ccccn5)CC4)c3o2)cn1
2. CN(C)C(=O)c1cc2cccc(N3CCN(CCc4cccc(C(F)(F)F)n4)CC3)c2o1
3. CN(Cc1cccc(S(C)(=O)=O)c1)C(=O)c1cc2cccc(N3CCN(CCc4ccccn4)CC3)c2o1
4. O=C(c1cc2cccc(N3CCN(CCc4ccccn4)CC3)c2o1)N1CCC1
5. Cc1ccnc(CCNC(=O)c2cc3cccc(N4CCN(CCc5ccccn5)CC4)c3o2)n1

0.88
0.85
1.00
1.20
1.28
